Biological target: UniProt P10828
Sequence (P10828 whole entry): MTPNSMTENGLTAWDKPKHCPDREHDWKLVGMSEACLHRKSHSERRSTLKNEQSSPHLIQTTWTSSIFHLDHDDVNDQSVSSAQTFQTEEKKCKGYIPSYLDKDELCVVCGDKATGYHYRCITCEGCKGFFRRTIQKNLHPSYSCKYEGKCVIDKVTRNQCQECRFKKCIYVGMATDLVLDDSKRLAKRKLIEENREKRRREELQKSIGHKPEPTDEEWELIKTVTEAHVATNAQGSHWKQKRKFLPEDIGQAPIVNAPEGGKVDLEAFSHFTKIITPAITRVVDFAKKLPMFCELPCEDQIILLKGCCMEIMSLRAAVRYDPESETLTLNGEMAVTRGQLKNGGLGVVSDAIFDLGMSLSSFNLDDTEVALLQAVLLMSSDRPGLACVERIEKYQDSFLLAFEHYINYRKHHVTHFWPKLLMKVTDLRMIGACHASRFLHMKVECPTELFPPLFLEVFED
Experiment: Inhibition of TRbeta-LBD (unknown origin) interaction to texas red-labeled SRC2-2 peptide by fluorescence polarization assay
Kindly state IC50 for each of the entries shown.

Problem: Could you share which IC50 value was measured for CS(=O)(=O)c1ccc(C(=O)NCCCC(=O)N(Cc2ccccc2)Cc2ccccc2)cc1[N+](=O)[O-] ?
Result: 59 µM

Problem: Could you share which IC50 value was measured for CS(=O)(=O)c1ccc(C(=O)N2CCC(C(=O)N3CCN(c4ccccc4F)CC3)CC2)cc1[N+](=O)[O-] ?
Result: > 60 µM

Problem: Could you share which IC50 value was measured for CN(CC(=O)N1CCc2ccccc2C1)C(=O)c1ccc(S(C)(=O)=O)c([N+](=O)[O-])c1 ?
Result: > 60 µM

Problem: Could you share which IC50 value was measured for Cc1ccc(N2CCN(C(=O)CCCNC(=O)c3ccc(S(C)(=O)=O)c([N+](=O)[O-])c3)CC2)cc1 ?
Result: > 60 µM

Problem: Could you share which IC50 value was measured for CN(Cc1ccccc1)C(=O)CCCNC(=O)c1ccc(S(C)(=O)=O)c([N+](=O)[O-])c1 ?
Result: > 60 µM

Problem: Could you share which IC50 value was measured for CS(=O)(=O)c1ccc(C(=O)NCCCC(=O)N2CCN(c3ccc(F)cc3)CC2)cc1[N+](=O)[O-] ?
Result: > 60 µM

Problem: Could you share which IC50 value was measured for CN(CC(=O)N1CCC(c2ccccc2)CC1)C(=O)c1ccc(S(C)(=O)=O)c([N+](=O)[O-])c1 ?
Result: > 60 µM

Problem: Could you share which IC50 value was measured for CS(=O)(=O)c1ccc(C(=O)N2CCC(C(=O)N3CCCCC3)CC2)cc1[N+](=O)[O-] ?
Result: > 60 µM

Problem: Could you share which IC50 value was measured for CN(Cc1ccccc1F)C(=O)C1CCN(C(=O)c2ccc(S(C)(=O)=O)c([N+](=O)[O-])c2)CC1 ?
Result: > 60 µM

Problem: Could you share which IC50 value was measured for CS(=O)(=O)c1ccc(C(=O)NCCCC(=O)N2CCc3ccccc32)cc1[N+](=O)[O-] ?
Result: > 60 µM

Problem: Could you share which IC50 value was measured for CN(Cc1cccc(F)c1)C(=O)CCCNC(=O)c1ccc(S(C)(=O)=O)c([N+](=O)[O-])c1 ?
Result: > 60 µM

Problem: Could you share which IC50 value was measured for CN(Cc1ccccc1)C(=O)C1CCN(C(=O)c2ccc(S(C)(=O)=O)c([N+](=O)[O-])c2)CC1 ?
Result: > 60 µM

Problem: Could you share which IC50 value was measured for CC1Cc2ccccc2N1C(=O)CN(C)C(=O)c1ccc(S(C)(=O)=O)c([N+](=O)[O-])c1 (configuration not stated) ?
Result: > 60 µM

Problem: Could you share which IC50 value was measured for CC(C)N(C(=O)CNC(=O)c1ccc(S(C)(=O)=O)c([N+](=O)[O-])c1)C(C)C ?
Result: > 60 µM

Problem: Could you share which IC50 value was measured for CS(=O)(=O)c1ccc(C(=O)NCCC(=O)N2CCN(c3ccc(C(F)(F)F)cc3)CC2)cc1[N+](=O)[O-] ?
Result: > 60 µM

Problem: Could you share which IC50 value was measured for CS(=O)(=O)c1ccc(C(=O)NCC(=O)N2CCN(c3ccccc3)CC2)cc1[N+](=O)[O-] ?
Result: > 60 µM

Problem: Could you share which IC50 value was measured for CN(CC(=O)N1CCN(c2ccc(C(F)(F)F)cc2)CC1)C(=O)c1ccc(S(C)(=O)=O)c([N+](=O)[O-])c1 ?
Result: > 60 µM

---

Molecular target: Thyroid hormone receptor alpha (Homo sapiens, UniProt P10827)
Sequence (P10827 whole entry): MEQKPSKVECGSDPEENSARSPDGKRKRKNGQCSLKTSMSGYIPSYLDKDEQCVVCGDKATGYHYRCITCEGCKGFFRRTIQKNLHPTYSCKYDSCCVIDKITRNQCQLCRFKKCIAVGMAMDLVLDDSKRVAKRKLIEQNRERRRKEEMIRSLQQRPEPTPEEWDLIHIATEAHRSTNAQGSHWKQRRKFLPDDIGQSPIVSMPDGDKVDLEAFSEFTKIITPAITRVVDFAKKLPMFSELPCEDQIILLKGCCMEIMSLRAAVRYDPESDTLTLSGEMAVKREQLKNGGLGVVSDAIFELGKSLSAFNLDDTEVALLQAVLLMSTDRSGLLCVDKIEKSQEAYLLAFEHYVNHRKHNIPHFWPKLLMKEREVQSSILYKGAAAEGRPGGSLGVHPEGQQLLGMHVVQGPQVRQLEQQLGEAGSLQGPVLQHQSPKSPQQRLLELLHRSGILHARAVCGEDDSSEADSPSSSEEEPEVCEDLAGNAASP
Assay: Inhibition of TRalpha-LBD (unknown origin) interaction to texas red-labeled SRC2-2 peptide by fluorescence polarization assay
Kindly state IC50 for each of the entries shown.

Problem: Could you share which IC50 value was measured for CN(C(=O)CCCNC(=O)c1ccc(S(C)(=O)=O)c([N+](=O)[O-])c1)c1ccccc1 ?
Result: > 60 µM

Problem: Could you share which IC50 value was measured for CS(=O)(=O)c1ccc(C(=O)NCCC(=O)N2CCN(c3ccccc3F)CC2)cc1[N+](=O)[O-] ?
Result: > 60 µM

Problem: Could you share which IC50 value was measured for CN(Cc1ccccc1)C(=O)CNC(=O)c1ccc(S(C)(=O)=O)c([N+](=O)[O-])c1 ?
Result: > 60 µM

Problem: Could you share which IC50 value was measured for CS(=O)(=O)c1ccc(C(=O)NCC(=O)N2CCc3ccccc3C2)cc1[N+](=O)[O-] ?
Result: > 60 µM

Problem: Could you share which IC50 value was measured for CS(=O)(=O)c1ccc(C(=O)NCCC(=O)N2CCN(c3ccc(F)cc3)CC2)cc1[N+](=O)[O-] ?
Result: > 60 µM

Problem: Could you share which IC50 value was measured for CS(=O)(=O)c1ccc(C(=O)N2CCC(C(=O)N3Cc4ccccc4C3)CC2)cc1[N+](=O)[O-] ?
Result: > 60 µM

Problem: Could you share which IC50 value was measured for CS(=O)(=O)c1ccc(C(=O)NCC(=O)N2CCCCC2)cc1[N+](=O)[O-] ?
Result: 44 µM

Problem: Could you share which IC50 value was measured for CCCN(C(=O)CCNC(=O)c1ccc(S(C)(=O)=O)c([N+](=O)[O-])c1)c1ccccc1 ?
Result: 32 µM

Problem: Could you share which IC50 value was measured for CS(=O)(=O)c1ccc(C(=O)NCCC(=O)NC23CC4CC(CC(C4)C2)C3)cc1[N+](=O)[O-] ?
Result: 25 µM

Problem: Could you share which IC50 value was measured for CN(Cc1cccc(F)c1)C(=O)CCNC(=O)c1ccc(S(C)(=O)=O)c([N+](=O)[O-])c1 ?
Result: 29 µM

Problem: Could you share which IC50 value was measured for CN(C(=O)CNC(=O)c1ccc(S(C)(=O)=O)c([N+](=O)[O-])c1)c1ccccc1 ?
Result: 4.2 µM

Problem: Could you share which IC50 value was measured for CC1Cc2ccccc2N1C(=O)CCNC(=O)c1ccc(S(C)(=O)=O)c([N+](=O)[O-])c1 (stereo not drawn) ?
Result: > 60 µM

Problem: Could you share which IC50 value was measured for CS(=O)(=O)c1ccc(C(=O)N2CCC(C(=O)N3CCC(c4ccccc4)CC3)CC2)cc1[N+](=O)[O-] ?
Result: > 60 µM

Problem: Could you share which IC50 value was measured for CS(=O)(=O)c1ccc(C(=O)NCCCC(=O)N2CCN(c3ccc(F)cc3)CC2)cc1[N+](=O)[O-] ?
Result: > 60 µM

Problem: Could you share which IC50 value was measured for CS(=O)(=O)c1ccc(C(=O)NCC(=O)N2CCN(c3ccccc3)CC2)cc1[N+](=O)[O-] ?
Result: > 60 µM

Problem: Could you share which IC50 value was measured for CS(=O)(=O)c1ccc(C(=O)NCCCC(=O)N2CCCCC2)cc1[N+](=O)[O-] ?
Result: > 60 µM

Problem: Could you share which IC50 value was measured for CS(=O)(=O)c1ccc(C(=O)NCC(=O)NC23CC4CC(CC(C4)C2)C3)cc1[N+](=O)[O-] ?
Result: 9.6 µM

Problem: Could you share which IC50 value was measured for CN(CC(=O)N1CCN(c2ccc(F)cc2)CC1)C(=O)c1ccc(S(C)(=O)=O)c([N+](=O)[O-])c1 ?
Result: > 60 µM
